Sourced from PubChem BioAssay AID1259407

- Tested on: CCRIS mutagenicity, Ames/micronucleus/aberration tests
- EXPERIMENTAL_PROTOCOL: CCRIS mutagenicity studies
- CONDITION_LABEL: Test System: AMES SALMONELLA TYPHIMURIUM; Strain/Indicator: TA98; Metabolic Activation: RAT, LIVER, S-9, PHENOBARBITAL AND BETA-NAPHTHOFLAVONE; Method: STANDARD PLATE
Calls of active or inactive are those of the source. No rule for the calls is given here.
Outcome codes: active, inactive

In [3]: df
Out[3]:
                                smiles_data     group
0  Cc1ccc(C(=O)c2cc(O)c(O)c([N+](=O)[O-])c2)cc1  inactive
1                                c1c[nH]cn1  inactive
2  O=[N+]([O-])c1cccc(CO/N=C/c2nc3cc([N+](=O)[O-])ccc3n2Cc2ccc(Cl)cc2)c1  inactive
3                [Cl][Pd-2]([Cl])([Cl])[Cl]  inactive
4  Cc1c(/C=N/OCc2ccccc2)c2cc([N+](=O)[O-])ccc2n1Cc1cccc([N+](=O)[O-])c1    active

====

- System: CCRIS mutagenicity, Ames/micronucleus/aberration tests
- EXPERIMENTAL_PROTOCOL: CCRIS mutagenicity studies
- CONDITION_LABEL: Test System: AMES SALMONELLA TYPHIMURIUM; Strain/Indicator: TA1535; Metabolic Activation: MOUSE, LIVER, S-9; Method: STANDARD PLATE
Activity calls are given as the source filed them. How the calls were made is not given here.

SMILES_DATA	mutagenic call
[O-]/[N+](=N\O)c1ccccc1	inactive; negative
CC[C@H]1OC(=O)[C@H](C)[C@@H](O[C@H]2C[C@@](C)(OC)[C@@H](O)[C@H](C)O2)[C@H](C)[C@@H](O[C@@H]2O[C@H](C)C[C@H](N(C)C)[C@H]2O)[C@](C)(O)C[C@@H](C)CN(C)[C@H](C)[C@@H](O)[C@]1(C)O	inactive; negative
C[C@]12CC[C@@H]3c4ccc(O)cc4CC[C@H]3[C@@H]1CC[C@@H]2O	inactive; negative

====

- Test system: CCRIS mutagenicity, Ames/micronucleus/aberration tests
- EXPERIMENTAL_PROTOCOL: CCRIS mutagenicity studies
- CONDITION_LABEL: Test System: MOUSE LYMPHOMA; Strain/Indicator: L5178Y (TK+/TK-); Metabolic Activation: NONE; Method: SUSPENSION/PLATE
Activity calls are given as the source filed them. How the calls were made is not given here. *1 amine or outer side, *2 acyl side, *3 side chain or, on linkers, in order; H or OH if unused. Where a SMILES comes first, the peptide text is derived from it. Bridges are numbered along the chain shown (N, C = ends). Roman numbers before positions name the chains, in order. [ ]: non-standard residue; d: D form. Actinocin(9to1) = Cc1c2oc3c(C)ccc(C(=O)[*:1])c3nc-2c(C(=O)[*:2])c(N)c1=O; NMeV = CN[C@H](C(=O)O)C(C)C; Sar = CNCC(=O)O
Outcome codes: active, inactive

MOLECULE	GROUP
O=C1c2c(O)ccc(O)c2C(=O)c2c(NCCNCCO)ccc(NCCNCCO)c21	active
O=C1NC(=O)[C@H]2[C@H]3C=C[C@@H]([C@@H]12)[C@@H]1[C@H]2C(=O)NC(=O)[C@H]2[C@H]31	active
CCCCC(CC)COC(=O)C(C#N)=C(c1ccccc1)c1ccccc1 (stereo not given)	inactive
CC1CCC(C(C)C)C(OC(=O)c2ccccc2N)C1 (stereo not given)	inactive
Nc1ccc(O)c(N)c1	active
O=NO	active
COS(=O)(=O)C(F)(F)F	active
CNC(=O)ON=CC(C)(C)SC	active
CC[C@H]1OC(=O)[C@H](C)[C@@H](O[C@H]2C[C@@](C)(OC)[C@@H](O)[C@H](C)O2)[C@H](C)[C@@H](O[C@@H]2O[C@H](C)C[C@H](N(C)C)[C@H]2O)[C@](C)(O)C[C@@H](C)CN(C)[C@H](C)[C@@H](O)[C@]1(C)O	inactive
CCOCOCC	inactive
C1CC2OC2CC1C1CO1 (stereo not given)	active
CN(C)c1ccc(N=Nc2ccccc2)cc1	inactive
COc1ccc(C=O)cc1	active
Nc1c(Br)cc([N+](=O)[O-])cc1[N+](=O)[O-]	active
c1ccc(-c2ccccc2)cc1	active
Cc1cc(O)ccc1N	active
Cc1c2oc3c(C)ccc(C(=O)N[C@@H]4C(=O)N[C@H](C(C)C)C(=O)N5CCC[C@H]5C(=O)N(C)CC(=O)N(C)[C@@H](C(C)C)C(=O)O[C@@H]4C)c3nc-2c(C(=O)N[C@@H]2C(=O)N[C@H](C(C)C)C(=O)N3CCC[C@H]3C(=O)N(C)CC(=O)N(C)[C@@H](C(C)C)C(=O)O[C@@H]2C)c(N)c1=O (I: T[dV]P[Sar][NMeV] / II: T[dV]P[Sar][NMeV]; ester I:1-I:C, II:1-II:C; linker I:N-II:N via Actinocin(9to1))	active
C[Si]1(C)O[Si](C)(C)O[Si](C)(C)O[Si](C)(C)O1	inactive
NC(=O)NO	active
Nc1ccc(N)cc1	active
C[n+]1cccc(C(=O)[O-])c1	inactive
O=C(O)CN(CCN(CC(=O)O)CC(=O)O)CC(=O)O	active
Cc1ccc(N)c(S(=O)(=O)O)c1	inactive
Nc1nc2cc(Cl)c(Cl)cc2s1	inactive
CC(Br)(CBr)CBr	active
C=CC(=O)OCCCC	active
Nc1ncn[nH]1	inactive
CC(C)(C#N)C(C)(C)C#N	inactive
C[Si](Cl)Cl	inactive
ClNc1nc(NCl)nc(NCl)n1	inactive
O=C(O)/C=C/c1ccc(O)c(O)c1	active
Nc1nc2c(ncn2[C@@H]2C=C[C@H](CO)C2)c(=O)[nH]1	inactive
CCCON=O	active
Nc1nc2ccc([N+](=O)[O-])cc2s1	inactive
O=Cc1ccc(Cl)cc1	inactive
c1ccncc1	inactive
C[C@@]1(CO)[C@H](O)CC[C@@]2(C)[C@H]1CC[C@H]1C[C@@H]3C[C@@]12CC[C@]3(O)CO	active
CCCCCCCCCCCC(=O)OCCS(=O)(=O)O	inactive
CCCCCCCCCC/C=C/C1CC(=O)OC1=O (stereo not given)	inactive
NC(=O)/C(=C\c1ccc([N+](=O)[O-])o1)c1ccco1	active
CN(C)c1ccc2nc3ccc(=[N+](C)C)cc-3sc2c1	active
C=C(C)C(=O)OCC(OC1=CCCC1)OC1=CCCC1	inactive
O=[N+]([O-])c1cc([As](=O)(O)O)ccc1O	active
ClC1=C(Cl)[C@]2(Cl)[C@@H]3[C@@H]4C[C@@H]([C@H]5O[C@@H]45)[C@@H]3[C@@]1(Cl)C2(Cl)Cl	active
COc1cc2c(c(OC)c1OC)-c1ccc(OC)c(=O)cc1[C@@H](NC(C)=O)CC2	inactive
COc1cccc(C=O)c1	inactive
CC1=CCC(C(C)(C)O)CC1 (stereo not given)	inactive
O=C(CCl)c1ccc(Cl)cc1Cl	inactive
C1CCC2CCCCC2C1 (stereo not given)	inactive
N#C/C(N)=C(/N)C#N	active
